B1: glmS ribozyme (parent)
chain: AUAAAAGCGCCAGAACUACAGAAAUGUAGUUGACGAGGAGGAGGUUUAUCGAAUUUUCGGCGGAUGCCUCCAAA

# Variants of: B1
# TEST_DETAILS: self-cleavage kobs at 640 uM GlcN6P; higher = faster cleavage; RNA array
# PROTOCOL_CONDITIONS: with glucosamine-6-phosphate
Variants at the floor of the assay were thinned out.
Catalogue of self-cleavage kobs at 640 uM GlcN6P readings, one per entry.
Your answer is read as s⁻¹, so omit the unit and give the number.

- G37A U45C: 5.03e-05
- U31A A52G: 0.000142
- A39U A48U: 8.14e-05
- U46C U65G: 2.77e-05
- A12G U65A: 2.72e-05

Moving on to the next variant.
Which value of self-cleavage kobs at 640 uM GlcN6P has been reported for A12C U65G C67U in the records?
0.000474
